Reported αvβ5 signal/ng by item:
target-system: T1, integrin αVβ5 (UniProt P06756 31-992; P18084 24-719)
T1 construct: Coated on the ELISA plate
T1 sequence (P06756 31-992, chain 1 of 2): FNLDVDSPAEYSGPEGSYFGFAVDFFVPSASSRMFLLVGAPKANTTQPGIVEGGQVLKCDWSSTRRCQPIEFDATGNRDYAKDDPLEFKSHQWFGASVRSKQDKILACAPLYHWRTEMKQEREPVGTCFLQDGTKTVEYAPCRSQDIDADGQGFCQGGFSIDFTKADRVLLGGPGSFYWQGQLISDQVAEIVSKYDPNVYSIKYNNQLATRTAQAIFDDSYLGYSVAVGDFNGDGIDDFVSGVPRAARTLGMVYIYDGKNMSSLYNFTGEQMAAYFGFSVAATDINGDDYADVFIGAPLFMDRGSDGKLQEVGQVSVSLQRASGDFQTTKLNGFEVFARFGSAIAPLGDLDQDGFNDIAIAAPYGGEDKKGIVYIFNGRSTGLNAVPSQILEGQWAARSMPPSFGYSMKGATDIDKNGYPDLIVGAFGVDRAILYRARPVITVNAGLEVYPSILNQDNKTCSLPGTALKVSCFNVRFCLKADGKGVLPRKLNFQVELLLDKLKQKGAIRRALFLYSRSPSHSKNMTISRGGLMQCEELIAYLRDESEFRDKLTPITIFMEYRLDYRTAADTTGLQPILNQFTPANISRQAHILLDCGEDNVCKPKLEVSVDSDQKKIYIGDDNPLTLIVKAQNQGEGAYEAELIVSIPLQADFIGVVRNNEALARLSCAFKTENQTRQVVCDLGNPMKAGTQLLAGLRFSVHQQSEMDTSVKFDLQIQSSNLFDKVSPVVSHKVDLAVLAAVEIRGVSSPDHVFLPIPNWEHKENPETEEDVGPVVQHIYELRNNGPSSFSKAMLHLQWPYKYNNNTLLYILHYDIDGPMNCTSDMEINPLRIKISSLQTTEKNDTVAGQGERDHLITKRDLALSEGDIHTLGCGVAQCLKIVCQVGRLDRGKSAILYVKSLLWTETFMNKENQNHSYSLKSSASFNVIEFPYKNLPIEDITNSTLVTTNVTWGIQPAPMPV
T1 sequence (P18084 24-719, chain 2 of 2): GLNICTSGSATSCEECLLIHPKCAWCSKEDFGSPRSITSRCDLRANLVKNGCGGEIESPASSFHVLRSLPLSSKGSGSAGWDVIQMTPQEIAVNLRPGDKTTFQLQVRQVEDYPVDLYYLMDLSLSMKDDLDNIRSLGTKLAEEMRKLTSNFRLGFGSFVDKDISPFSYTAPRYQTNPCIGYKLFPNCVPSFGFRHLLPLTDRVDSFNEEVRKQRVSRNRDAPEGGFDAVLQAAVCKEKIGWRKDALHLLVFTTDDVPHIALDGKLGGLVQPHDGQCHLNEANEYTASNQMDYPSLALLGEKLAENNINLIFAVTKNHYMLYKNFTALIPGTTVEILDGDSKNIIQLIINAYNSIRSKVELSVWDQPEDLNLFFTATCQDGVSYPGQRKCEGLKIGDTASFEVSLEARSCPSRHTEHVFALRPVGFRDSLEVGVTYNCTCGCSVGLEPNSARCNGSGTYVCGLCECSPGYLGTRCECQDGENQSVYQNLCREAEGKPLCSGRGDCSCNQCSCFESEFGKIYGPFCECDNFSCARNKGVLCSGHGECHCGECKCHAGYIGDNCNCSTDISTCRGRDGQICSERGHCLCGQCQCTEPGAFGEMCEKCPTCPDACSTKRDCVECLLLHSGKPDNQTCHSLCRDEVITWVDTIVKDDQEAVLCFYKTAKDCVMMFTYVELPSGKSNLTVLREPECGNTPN
protocol-summary: ELISA, coated integrin, anti-MICA-HRP
Reply with just the number (in signal/ng MICA).

soluble MICA generated from pKK52 (tight loop 1 insert T-3.1) (designed binder, From pSW324 (from pKK34: His6, Glu125); secreted by 293T cells; also called 1-T-3.1) HHHHHHEPHSLRYNLTVLSWDGSVQSGFLTEVHLDGQPFLRCDRQKCRAKPQGQWAEDVLGNKTWDRETRDLTGNGKDLRMTLAHIKDQKEGLHSLQEIRVCEIHEDNSTRSSQHFYYDGELFLSQNLETEEWTMPQSSRAQTLAMNVRNFLKEDAMKTKTHYHAMHADCLQELRRYLKSGVVLRRTVPPMVNTSRGDHPRTQCRASGFYPWNITLSWRQDGVSLSHDTQQWGDVLPDGNGTYQTWVATRICQGEEQRFTCYMEHSGNHSTHPVPSGK; 12.6
soluble MICA generated from pKK46 (loop 1 insert extended 5.1sp) (designed binder, From pKK34 (His6, Glu125); secreted by 293T cells; also called 1-5.1sp) HHHHHHEPHSLRYNLTVLSWDGSVQSGFLTEVHLDGQPFLRCDRQKCRAKPQGQWAEDVLGNKTWDRETRDLTGNGKDLRMTLAHIKDQKEGLHSLQEIRVCEIHEDNSTRSSQHFYYDGELFLSQNLETEEWTMPQSSRAQTLAMNVRNFLKEDAMKTKTHYHAMHADCLQELRRYLKSGVVLRRTVPPMVNVTSGGSGGGSVTRGDTFTQSSGGSGGGVTCRASGFYPWNITLSWRQDGVSLSHDTQQWGDVLPDGNGTYQTWVATRICQGEEQRFTCYMEHSGNHSTHPVPSGK; 25.5

Let's switch to this binder now.
Q) Identify the reported αvβ5 signal/ng for the following entry. soluble MICA generated from pKK42 (loop 1 insert 5.3) (designed binder, From pKK34 (His6, Glu125); secreted by 293T cells; also called 1-5.3) HHHHHHEPHSLRYNLTVLSWDGSVQSGFLTEVHLDGQPFLRCDRQKCRAKPQGQWAEDVLGNKTWDRETRDLTGNGKDLRMTLAHIKDQKEGLHSLQEIRVCEIHEDNSTRSSQHFYYDGELFLSQNLETEEWTMPQSSRAQTLAMNVRNFLKEDAMKTKTHYHAMHADCLQELRRYLKSGVVLRRTVPPMVNVTHLARGDDLTYVTCRASGFYPWNITLSWRQDGVSLSHDTQQWGDVLPDGNGTYQTWVATRICQGEEQRFTCYMEHSGNHSTHPVPSGK
A) 22.8
